The measurements presented in this section are drawn from patent US11179380B2.

Experiment: Log P from reversed-phase TLC Rf/Rm values (MeOH in water mobile phases)
Conditions: 40% MeOH in water
Reported Rf by item:
TEST READOUT: Rf

>>> experimental_value("CCC(=O)OC1COC2C(OC(=O)c3cccnc3)COC12 (stereo not drawn) [Isosorbide-2-Propionate-5-nicotinate, Isosorbide 2-propionate-5-nicotinate]")
0.1600
>>> experimental_value("CC(=O)OC1COC2C(OC(=O)c3cccnc3)COC12 (stereo not drawn) [Isosorbide-2-Acetate-5-nicotinate, Isosorbide 2-acetate-5-nicotinate]")
0.2860
>>> experimental_value("CC(=O)Oc1ccccc1C(=O)O[C@H]1COC2C1OC[C@H]2OC(=O)c1cccnc1 (stereo partly drawn) [ST0702, Isosorbide-2-aspirinate-5-nicotinate]")
0.0460
>>> experimental_value("CCCC(=O)O[C@H]1CO[C@H]2[C@@H]1OC[C@H]2OC(=O)c1cccnc1 [Isosorbide-2-Butyrate-5-nicotinate, Isosorbide 2-butyrate-5-nicotinate]")
0.1060
>>> experimental_value("CC(=O)Nc1ccc(O)cc1 [Paracetamol, paracetamol, reference compound]")
0.5460
>>> experimental_value("COC(=O)c1ccccc1 [Methyl Benzoate, methyl benzoate, reference compound]")
0.1460
>>> experimental_value("CCCCC(=O)O[C@H]1CO[C@H]2[C@@H]1OC[C@H]2OC(=O)c1cccnc1 [Isosorbide-2-Valeroate-5-nicotinate, Isosorbide 2-valeroate-5-nicotinate]")
0.0530
>>> experimental_value("O=[N+]([O-])O[C@@H]1CO[C@H]2[C@@H]1OC[C@@H]2O [ISMN, isosorbide mononitrate, reference compound]")
0.6060
>>> experimental_value("O=C(OC1COC2C(OC(=O)c3cccnc3)COC12)c1ccccc1 (stereo not drawn) [Isosorbide-2-Benzoate-5-nicotinate, Isosorbide 2-benzoate-5-nicotinate]")
0.0260

###

Assay: physchem
TEST READOUT: Log P (calculated)

>>> experimental_value("CCC(=O)OC1COC2C(OC(=O)c3cccnc3)COC12 (stereo not drawn) [Isosorbide-2-Propionate-5-nicotinate, Isosorbide 2-propionate-5-nicotinate]")
2.367
>>> experimental_value("CCCCC(=O)O[C@H]1CO[C@H]2[C@@H]1OC[C@H]2OC(=O)c1cccnc1 [Isosorbide-2-Valeroate-5-nicotinate, Isosorbide 2-valeroate-5-nicotinate]")
3.8225
>>> experimental_value("CC(=O)OC1COC2C(OC(=O)c3cccnc3)COC12 (stereo not drawn) [Isosorbide-2-Acetate-5-nicotinate, Isosorbide 2-acetate-5-nicotinate]")
1.3369
>>> experimental_value("O=C(OC1COC2C(OC(=O)c3cccnc3)COC12)c1ccccc1 (stereo not drawn) [Isosorbide-2-Benzoate-5-nicotinate, Isosorbide 2-benzoate-5-nicotinate]")
4.7555
>>> experimental_value("CCCC(=O)O[C@H]1CO[C@H]2[C@@H]1OC[C@H]2OC(=O)c1cccnc1 [Isosorbide-2-Butyrate-5-nicotinate, Isosorbide 2-butyrate-5-nicotinate]")
2.8118
>>> experimental_value("COC(=O)c1ccccc1 [Methyl Benzoate, methyl benzoate, reference compound]")
2.2

###

Test: Log P from reversed-phase TLC Rf/Rm values (MeOH in water mobile phases)
Settings: 60% MeOH in water
TEST READOUT: Rf

>>> experimental_value("CC(=O)OC1COC2C(OC(=O)c3cccnc3)COC12 (stereo not drawn) [Isosorbide-2-Acetate-5-nicotinate, Isosorbide 2-acetate-5-nicotinate]")
0.5200
>>> experimental_value("CCC(=O)OC1COC2C(OC(=O)c3cccnc3)COC12 (stereo not drawn) [Isosorbide-2-Propionate-5-nicotinate, Isosorbide 2-propionate-5-nicotinate]")
0.4400
>>> experimental_value("O=[N+]([O-])O[C@@H]1CO[C@H]2[C@@H]1OC[C@@H]2O [ISMN, isosorbide mononitrate, reference compound]")
0.7000

###

Reported Rf by item:
Test: Log P from reversed-phase TLC Rf/Rm values (MeOH in water mobile phases)
Details: 60% MeOH in water
TEST READOUT: Rf

>>> experimental_value("CC(=O)Oc1ccccc1C(=O)O[C@H]1COC2C1OC[C@H]2OC(=O)c1cccnc1 (stereo partly drawn) [ST0702, Isosorbide-2-aspirinate-5-nicotinate]")
0.2730
>>> experimental_value("O=C(OC1COC2C(OC(=O)c3cccnc3)COC12)c1ccccc1 (stereo not drawn) [Isosorbide-2-Benzoate-5-nicotinate, Isosorbide 2-benzoate-5-nicotinate]")
0.2060
>>> experimental_value("COC(=O)c1ccccc1 [Methyl Benzoate, methyl benzoate, reference compound]")
0.3600
>>> experimental_value("CC(=O)Nc1ccc(O)cc1 [Paracetamol, paracetamol, reference compound]")
0.7460
>>> experimental_value("CCCC(=O)O[C@H]1CO[C@H]2[C@@H]1OC[C@H]2OC(=O)c1cccnc1 [Isosorbide-2-Butyrate-5-nicotinate, Isosorbide 2-butyrate-5-nicotinate]")
0.3530
>>> experimental_value("CCCCC(=O)O[C@H]1CO[C@H]2[C@@H]1OC[C@H]2OC(=O)c1cccnc1 [Isosorbide-2-Valeroate-5-nicotinate, Isosorbide 2-valeroate-5-nicotinate]")
0.2730

###

Assay: Log P from reversed-phase TLC Rf/Rm values (MeOH in water mobile phases)
Details: 50% MeOH in water
Binarize Rf at 0.2; below is T, at or above is F.

>>> category("O=C(OC1COC2C(OC(=O)c3cccnc3)COC12)c1ccccc1 (stereo not drawn) [Isosorbide-2-Benzoate-5-nicotinate, Isosorbide 2-benzoate-5-nicotinate]")
"T"
>>> category("CCCC(=O)O[C@H]1CO[C@H]2[C@@H]1OC[C@H]2OC(=O)c1cccnc1 [Isosorbide-2-Butyrate-5-nicotinate, Isosorbide 2-butyrate-5-nicotinate]")
"F"
>>> category("CCCCC(=O)O[C@H]1CO[C@H]2[C@@H]1OC[C@H]2OC(=O)c1cccnc1 [Isosorbide-2-Valeroate-5-nicotinate, Isosorbide 2-valeroate-5-nicotinate]")
"T"
>>> category("O=[N+]([O-])O[C@@H]1CO[C@H]2[C@@H]1OC[C@@H]2O [ISMN, isosorbide mononitrate, reference compound]")
"F"
>>> category("CC(=O)Nc1ccc(O)cc1 [Paracetamol, paracetamol, reference compound]")
"F"
>>> category("CC(=O)OC1COC2C(OC(=O)c3cccnc3)COC12 (stereo not drawn) [Isosorbide-2-Acetate-5-nicotinate, Isosorbide 2-acetate-5-nicotinate]")
"F"
>>> category("CC(=O)Oc1ccccc1C(=O)O[C@H]1COC2C1OC[C@H]2OC(=O)c1cccnc1 (stereo partly drawn) [ST0702, Isosorbide-2-aspirinate-5-nicotinate]")
"T"
>>> category("CCC(=O)OC1COC2C(OC(=O)c3cccnc3)COC12 (stereo not drawn) [Isosorbide-2-Propionate-5-nicotinate, Isosorbide 2-propionate-5-nicotinate]")
"F"
>>> category("COC(=O)c1ccccc1 [Methyl Benzoate, methyl benzoate, reference compound]")
"T"

###

Experiment: Log P from reversed-phase TLC Rf/Rm values (MeOH in water mobile phases)
Binarize Extrapolated Rm (y value) at 3; below is t, at or above is f.

>>> category("CC(=O)OC1COC2C(OC(=O)c3cccnc3)COC12 (centres unmarked) [Isosorbide-2-Acetate-5-nicotinate, Isosorbide 2-acetate-5-nicotinate]")
"t"
>>> category("CCC(=O)OC1COC2C(OC(=O)c3cccnc3)COC12 (centres unmarked) [Isosorbide-2-Propionate-5-nicotinate, Isosorbide 2-propionate-5-nicotinate]")
"t"
>>> category("O=C(OC1COC2C(OC(=O)c3cccnc3)COC12)c1ccccc1 (centres unmarked) [Isosorbide-2-Benzoate-5-nicotinate, Isosorbide 2-benzoate-5-nicotinate]")
"f"
>>> category("CCCC(=O)O[C@H]1CO[C@H]2[C@@H]1OC[C@H]2OC(=O)c1cccnc1 [Isosorbide-2-Butyrate-5-nicotinate, Isosorbide 2-butyrate-5-nicotinate]")
"t"

###

Assay: Log P from reversed-phase TLC Rf/Rm values (MeOH in water mobile phases)
Settings: 50% MeOH in water; calculated from Rf
TEST READOUT: Rm

>>> experimental_value("O=C(OC1COC2C(OC(=O)c3cccnc3)COC12)c1ccccc1 (stereo not drawn) [Isosorbide-2-Benzoate-5-nicotinate, Isosorbide 2-benzoate-5-nicotinate]")
1.0210
>>> experimental_value("O=[N+]([O-])O[C@@H]1CO[C@H]2[C@@H]1OC[C@@H]2O [ISMN, isosorbide mononitrate, reference compound]")
"−0.2746"
>>> experimental_value("COC(=O)c1ccccc1 [Methyl Benzoate, methyl benzoate, reference compound]")
0.6391
>>> experimental_value("CCC(=O)OC1COC2C(OC(=O)c3cccnc3)COC12 (stereo not drawn) [Isosorbide-2-Propionate-5-nicotinate, Isosorbide 2-propionate-5-nicotinate]")
0.4254
>>> experimental_value("CC(=O)Nc1ccc(O)cc1 [Paracetamol, paracetamol, reference compound]")
"−0.2256"
>>> experimental_value("CC(=O)Oc1ccccc1C(=O)O[C@H]1COC2C1OC[C@H]2OC(=O)c1cccnc1 (stereo partly drawn) [ST0702, Isosorbide-2-aspirinate-5-nicotinate]")
0.8653
>>> experimental_value("CC(=O)OC1COC2C(OC(=O)c3cccnc3)COC12 (stereo not drawn) [Isosorbide-2-Acetate-5-nicotinate, Isosorbide 2-acetate-5-nicotinate]")
0.2256
>>> experimental_value("CCCCC(=O)O[C@H]1CO[C@H]2[C@@H]1OC[C@H]2OC(=O)c1cccnc1 [Isosorbide-2-Valeroate-5-nicotinate, Isosorbide 2-valeroate-5-nicotinate]")
0.8653
>>> experimental_value("CCCC(=O)O[C@H]1CO[C@H]2[C@@H]1OC[C@H]2OC(=O)c1cccnc1 [Isosorbide-2-Butyrate-5-nicotinate, Isosorbide 2-butyrate-5-nicotinate]")
0.5841
